System: 519858-162-T-J1-PDC spheroid growth inhibition
Experiment: Anticancer human tumor 519858-162-T-J1-PDC patient-derived colon adenocarcinoma cell line growth inhibition [TAK]
Details: second compound 9.49 µM; first compound 0.316 µM; stronger effect = lower value; spheroids with HUVEC and MSC
This section presents compounds with their documented viability, T/C values.
Number plus unit, in that order.

Example entries begin here.
Compound	viability, T/C
CCCS(=O)(=O)Nc1ccc(F)c(C(=O)c2c[nH]c3ncc(-c4ccc(Cl)cc4)cc23)c1F + CC(C)NCC(C(=O)N1CCN(c2ncnc3c2C(C)CC3O)CC1)c1ccc(Cl)cc1	99.8%
COc1c(OCCCN2CCOCC2)ccc2c3n(c(=NC(=O)c4cnc(N)nc4)nc12)CCN3 + CC(C)NCC(C(=O)N1CCN(c2ncnc3c2C(C)CC3O)CC1)c1ccc(Cl)cc1	60.5%
CC(C)(C)c1nc(-c2cccc(NS(=O)(=O)c3c(F)cccc3F)c2F)c(-c2ccnc(N)n2)s1 + CC(C)NCC(C(=O)N1CCN(c2ncnc3c2C(C)CC3O)CC1)c1ccc(Cl)cc1	112%

Okay, now this compound:
[in] Suppose we examine the compound Cc1nc(NC(=O)N2CCCC2C(N)=O)sc1-c1ccnc(C(C)(C)C(F)(F)F)c1 (centres undefined) + CC(C)NCC(C(=O)N1CCN(c2ncnc3c2C(C)CC3O)CC1)c1ccc(Cl)cc1 ; what viability, T/C value has been reported?
[out] 81.4%

* * *

This section presents compounds with their documented viability, T/C values.
System: 519858-162-T-J1-PDC spheroid growth inhibition
Experiment: Anticancer human tumor 519858-162-T-J1-PDC cell line growth inhibition [TAK];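 note: each agent tested in combination with TAK-243 or ipatasertib; spheroids exposed to drugs for 7 days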
Conditions: second compound 0.3 µM; first compound 0.316 µM; stronger effect = lower value; spheroids with HUVEC and MSC
Lab book: enter the figure in %, no units written.

Compound	Units Label	viability, T/C
CC(C)(C)c1nc(-c2cccc(NS(=O)(=O)c3c(F)cccc3F)c2F)c(-c2ccnc(N)n2)s1 + CC(C)NCC(C(=O)N1CCN(c2ncnc3c2C(C)CC3O)CC1)c1ccc(Cl)cc1	%	115

[in] Suppose we examine the compound COc1c(OCCCN2CCOCC2)ccc2c3n(c(=NC(=O)c4cnc(N)nc4)nc12)CCN3 + CC(C)NCC(C(=O)N1CCN(c2ncnc3c2C(C)CC3O)CC1)c1ccc(Cl)cc1 ; what viability, T/C value has been reported?
[out] 49.5

[in] Suppose we examine the compound Cc1nc(NC(=O)N2CCCC2C(N)=O)sc1-c1ccnc(C(C)(C)C(F)(F)F)c1 (centres undefined) + CC(C)NCC(C(=O)N1CCN(c2ncnc3c2C(C)CC3O)CC1)c1ccc(Cl)cc1 ; what viability, T/C value has been reported?
[out] 81

[in] Suppose we examine the compound CCCS(=O)(=O)Nc1ccc(F)c(C(=O)c2c[nH]c3ncc(-c4ccc(Cl)cc4)cc23)c1F + CC(C)NCC(C(=O)N1CCN(c2ncnc3c2C(C)CC3O)CC1)c1ccc(Cl)cc1 ; what viability, T/C value has been reported?
[out] 85.8

* * *

This section presents molecules with their documented viability, T/C values.
System: 519858-162-T-J1-PDC spheroid growth inhibition
Assay: Anticancer human tumor 519858-162-T-J1-PDC cell line growth inhibition [TAK];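 note: each agent tested in combination with TAK-243 or ipatasertib; spheroids exposed to drugs for 7 days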
Conditions: second compound 0.949 µM; first compound 0.001 µM; stronger effect = lower value; spheroids with HUVEC and MSC
Lab book: enter the figure in %, no units written.

Example entries begin here.
Molecule	Units Label	viability, T/C
CC(C)CC(NC(=O)C(Cc1ccccc1)NC(=O)c1cnccn1)B(O)O (centres undefined) + CC(C)NCC(C(=O)N1CCN(c2ncnc3c2C(C)CC3O)CC1)c1ccc(Cl)cc1	%	88.9
CC(C)n1nc(-c2ccc3oc(N)nc3c2)c2c(N)ncnc21 + CC(C)NCC(C(=O)N1CCN(c2ncnc3c2C(C)CC3O)CC1)c1ccc(Cl)cc1	%	88.2
CC(C)CC(NC(=O)CNC(=O)c1cc(Cl)ccc1Cl)B1OC(=O)CC(CC(=O)O)(C(=O)O)O1 (centres undefined) + CC(C)NCC(C(=O)N1CCN(c2ncnc3c2C(C)CC3O)CC1)c1ccc(Cl)cc1	%	91.7

[in] Suppose we examine the molecule COC1CC2CCC(C)C(O)(O2)C(=O)C(=O)N2CCCCC2C(=O)OC(C(C)CC2CCC(OCCO)C(OC)C2)CC(=O)C(C)C=C(C)C(O)C(OC)C(=O)C(C)CC(C)C=CC=CC=C1C (centres undefined) + CC(C)NCC(C(=O)N1CCN(c2ncnc3c2C(C)CC3O)CC1)c1ccc(Cl)cc1 ; what viability, T/C value has been reported?
[out] 87.1

* * *

This section presents compounds with their documented viability, T/C values.
Tested on: 519858-162-T-J1-PDC spheroid growth inhibition
Experiment: Anticancer human tumor 519858-162-T-J1-PDC cell line growth inhibition [TAK];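 note: each agent tested in combination with TAK-243 or ipatasertib; spheroids exposed to drugs for 7 days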
Details: second compound 0.949 µM; first compound 0.00316 µM; stronger effect = lower value; spheroids with HUVEC and MSC
Lab book: enter the figure in %, no units written.

Compound	Target	Attribute Measured	Assay Result
CC(C)CC(NC(=O)C(Cc1ccccc1)NC(=O)c1cnccn1)B(O)O (stereo not given) + CC(C)NCC(C(=O)N1CCN(c2ncnc3c2C(C)CC3O)CC1)c1ccc(Cl)cc1	519858-162-T-J1-PDC spheroid growth inhibition	viability, T/C	95.6
CC(C)n1nc(-c2ccc3oc(N)nc3c2)c2c(N)ncnc21 + CC(C)NCC(C(=O)N1CCN(c2ncnc3c2C(C)CC3O)CC1)c1ccc(Cl)cc1	519858-162-T-J1-PDC spheroid growth inhibition	viability, T/C	107

[in] Suppose we examine the compound COc1c(OCCCN2CCOCC2)ccc2c3n(c(=NC(=O)c4cnc(N)nc4)nc12)CCN3 + CC(C)NCC(C(=O)N1CCN(c2ncnc3c2C(C)CC3O)CC1)c1ccc(Cl)cc1 ; what viability, T/C value has been reported?
[out] 76.6

[in] Suppose we examine the compound COC1CC2CCC(C)C(O)(O2)C(=O)C(=O)N2CCCCC2C(=O)OC(C(C)CC2CCC(OCCO)C(OC)C2)CC(=O)C(C)C=C(C)C(O)C(OC)C(=O)C(C)CC(C)C=CC=CC=C1C (stereo not given) + CC(C)NCC(C(=O)N1CCN(c2ncnc3c2C(C)CC3O)CC1)c1ccc(Cl)cc1 ; what viability, T/C value has been reported?
[out] 65.8

[in] Suppose we examine the compound CC(C)CC(NC(=O)CNC(=O)c1cc(Cl)ccc1Cl)B1OC(=O)CC(CC(=O)O)(C(=O)O)O1 (stereo not given) + CC(C)NCC(C(=O)N1CCN(c2ncnc3c2C(C)CC3O)CC1)c1ccc(Cl)cc1 ; what viability, T/C value has been reported?
[out] 79.5
